From: patent US7998940B2

Test system: rabbit vWF A1 domain (SEQ ID NO 6)
Sequence (as listed by the source): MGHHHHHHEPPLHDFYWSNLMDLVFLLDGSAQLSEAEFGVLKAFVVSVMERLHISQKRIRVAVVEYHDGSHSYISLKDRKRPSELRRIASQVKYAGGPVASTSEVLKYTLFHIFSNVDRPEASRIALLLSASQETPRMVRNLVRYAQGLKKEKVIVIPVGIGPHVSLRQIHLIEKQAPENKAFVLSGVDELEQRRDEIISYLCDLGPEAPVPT
Test: 3-point dot blot screen, rabbit vWF A1 domain
Format: binding
Settings: DNA SELEX 1 aptamers; 100 nM rabbit vWF A1 domain; ratio of fraction bound with target to without
ENDPOINT: Screen- Rabbit/No Protein
Keep the answer to the number alone.

Here are 2 molecules together with their reported answers.
AMX199.C4: DNA SELEX 1 aptamer clone (nucleic acid, DNA, backbone not given here, DNA SELEX 1 aptamer clone) DNA: CTACCTACGATCTGACTAGCGGAATGAGGATGCTGATGGATTGCACAGGTCTGCTGGCTGCTTACTCTCATGTAGTTCC ... 2.85
AMX200.C11: DNA SELEX 1 aptamer clone (nucleic acid, DNA, backbone not given here, DNA SELEX 1 aptamer clone) DNA: CTACCTACGATCTGACTAGCGGAATGAGAGTGCTGATGGATTGCTCAGGTCTGCTGGCTGCTTACTCTCATGTAGTTCC ... 3.64

What the record says about AMX200.G11: DNA SELEX 1 aptamer clone (nucleic acid, DNA, backbone not given here, DNA SELEX 1 aptamer clone) DNA: CTACCTACGATCTGACTAGCGGAACGAGAATGCTGATGGATTGCTCAGGTCTGCTGGCTGCTTACTCTCATGTAGTTCC : Screen- Rabbit/No Protein is 1.28

Noted for AMX202.A8: DNA SELEX 1 aptamer clone (nucleic acid, DNA, backbone not given here, DNA SELEX 1 aptamer clone) DNA: CTACCTACGATCTGACTAGCAAGGGGATTGGCTCCGGGTCTGGCGTGCTCGGCACTTCCGGCTTACTCTCATGTAGTTCC : its Screen- Rabbit/No Protein reads 1.27
